Reference for the values: ChEMBL document CHEMBL1201862

System: 786-0
assay: NCI tumour cell line growth inhibition, 48 h
Active and inactive are the calls of the source. Cut-off read from the data, not from the text of the source: active = GI50 up to about 1.1 µM and inactive = higher.
readout.label: GI50

{"molecule": "CSc1ccc(/C=C2\\N=C(c3ccccc3)N(c3nc4c(Cl)cc(Cl)cc4s3)C2=O)cc1", "readout.label": "GI50", "assay.value": "25.9 µM (inactive)"}
{"molecule": "COc1cc(C2(C)SCCCS2)c(I)c(OC)c1OC", "readout.label": "GI50", "assay.value": "> 100 µM (inactive)"}
{"molecule": "Nc1ccc(Oc2ccc(C34CC5CC(C3)CC(c3ccc(Oc6ccc(N)cc6)cc3)(C5)C4)cc2)cc1", "readout.label": "GI50", "assay.value": "10.2 µM (inactive)"}
{"molecule": "O=C(O)c1c[nH]c2c(ccc3ncccc32)c1=O", "readout.label": "GI50", "assay.value": "> 100 µM (inactive)"}
{"molecule": "Cc1ccc(C(O)/C(=N/N)c2nc3ccc([N+](=O)[O-])cc3nc2O)cc1 (configuration not stated)", "readout.label": "GI50", "assay.value": "> 100 µM (inactive)"}
{"molecule": "COc1cccc(/C=C/c2ccc(S(N)(=O)=O)cc2)c1", "readout.label": "GI50", "assay.value": "17.8 µM (inactive)"}
{"molecule": "CN(C)C(=S)/N=c1\\ssc(=S)n1-c1ccccc1", "readout.label": "GI50", "assay.value": "16.8 µM (inactive)"}

====

System: HCC 2998
assay: NCI tumour cell line growth inhibition, 48 h
Activity calls are given as the source filed them. No stated cut-off is given here; in the data, active = GI50 up to about 1.1 µM and inactive = higher.
Outcomes: YES for active, NO for inactive

{"compound": "C=C(/C=C/C=C(/CCC=C(C)C)COC(C)=O)[C@@H]1CC[C@]2([C@H](CCCO)/C(=C(/C)C=O)CC[C@]2(C)O)[C@@H]1O", "target.or.test.system": "HCC 2998", "classification": "NO"}
{"compound": "CCCCCNc1nonc1N", "target.or.test.system": "HCC 2998", "classification": "NO"}
{"compound": "C[C@H]1/C(=C/C(=O)OCCN(C)C)CC[C@H]2[C@H]1C(=O)C[C@H]1C(C)(C)[C@@H](O)CC[C@]21C", "target.or.test.system": "HCC 2998", "classification": "NO"}
{"compound": "O=C1C(NCCc2cc(Br)c(O)c(Br)c2)=CC(=O)c2ncccc21", "target.or.test.system": "HCC 2998", "classification": "NO"}
{"compound": "CCOC(=O)c1ccc(-n2nnc(C(N)=O)c2O)cc1", "target.or.test.system": "HCC 2998", "classification": "NO"}
{"compound": "CC1(C)CNC(=O)C2(CCCO2)CNC(C)(C)CNC(=O)C2(CCCO2)CN1 (configuration not stated)", "target.or.test.system": "HCC 2998", "classification": "NO"}
{"compound": "Oc1cccc2c1[nH]c1c(C3=C[C@@]4(O)CC/C=C\\CCCCN5CC[C@@H]3[C@]3(CC6/C=C\\CCCCN6[C@H]34)C5)nccc12 (some centres not stated)", "target.or.test.system": "HCC 2998", "classification": "YES"}
{"compound": "O=c1c(Cc2c(O)ccc3ccccc23)nnc2sc(-c3nn4c(=O)c(Cc5c(O)ccc6ccccc56)nnc4s3)nn12", "target.or.test.system": "HCC 2998", "classification": "NO"}
{"compound": "Cc1ccc2[nH]c3c(c2c1)CCC/C3=N/N=C(N)N", "target.or.test.system": "HCC 2998", "classification": "NO"}
{"compound": "O=C(O)CCC(NC(=O)c1ccc(Oc2nc3ccccc3nc2-c2ccccc2)cc1)C(=O)O (configuration not stated)", "target.or.test.system": "HCC 2998", "classification": "NO"}
{"compound": "COC1(OC)C=CC2C1C1C=CC2C1(OC)OC (configuration not stated)", "target.or.test.system": "HCC 2998", "classification": "NO"}
{"compound": "c1ncc(C23C4C5C6C4C2C6C53)[nH]1 (configuration not stated)", "target.or.test.system": "HCC 2998", "classification": "NO"}
{"compound": "Cc1ccc2nc(N/N=C/c3sccc3C)cc(C)c2c1", "target.or.test.system": "HCC 2998", "classification": "NO"}
{"compound": "N#Cc1nnc2ccccc2c1N", "target.or.test.system": "HCC 2998", "classification": "NO"}
{"compound": "CCOC(=O)c1csc(NC(=O)CCN2CCN(C)CC2)n1", "target.or.test.system": "HCC 2998", "classification": "NO"}
{"compound": "Clc1ccc(CNc2nc3ccccc3nc2-c2cccs2)c(Cl)c1", "target.or.test.system": "HCC 2998", "classification": "NO"}
{"compound": "CCOC(=O)c1cc(C2CCN(c3ccccc3)C2=O)c(C(=O)/C=C(/C)N)[nH]1 (configuration not stated)", "target.or.test.system": "HCC 2998", "classification": "NO"}
{"compound": "CC1=NC(=Cc2ccc(Cl)cc2)C(=O)N1n1c(-c2ccccc2)nc2ccccc2c1=O", "target.or.test.system": "HCC 2998", "classification": "NO"}
{"compound": "CCCCOC(=O)Nc1ccc(S(=O)(=O)Nc2c(Cl)cccc2Cl)cc1", "target.or.test.system": "HCC 2998", "classification": "NO"}
{"compound": "Cc1ccc(S(=O)(=O)NCCCSCCN)cc1", "target.or.test.system": "HCC 2998", "classification": "NO"}
{"compound": "COC/C=C\\[C@]1(O)CCCC[C@@H]1CC(OC)OC", "target.or.test.system": "HCC 2998", "classification": "NO"}
{"compound": "O=C(Nc1ccc(Cl)cc1)NS(=O)(=O)c1coc2cc(F)ccc2c1=O", "target.or.test.system": "HCC 2998", "classification": "NO"}
{"compound": "CCOC(=O)C1=C(O)C(=O)c2ccsc2C1=O", "target.or.test.system": "HCC 2998", "classification": "NO"}
{"compound": "CN1CCn2c(Br)ccc2C1=O", "target.or.test.system": "HCC 2998", "classification": "NO"}
{"compound": "COC1C2C=CC(C2)[C@H]1[N+](=O)[O-] (some centres not stated)", "target.or.test.system": "HCC 2998", "classification": "NO"}
{"compound": "Cc1ccc(S(=O)(=O)N/N=C2\\C3CC4CC(C3)C2C4)cc1 (configuration not stated)", "target.or.test.system": "HCC 2998", "classification": "NO"}
{"compound": "CC(NNC(=O)c1cc[n+]([BH2-]C#N)cc1)c1ccc(Cl)c(Cl)c1 (configuration not stated)", "target.or.test.system": "HCC 2998", "classification": "NO"}
{"compound": "CN(C)C(=S)/N=c1\\ssc(=S)n1-c1ccccc1", "target.or.test.system": "HCC 2998", "classification": "NO"}
{"compound": "Cn1cc(S(=O)(=O)NC(=O)Nc2ccc(Cl)cc2)c(=O)c2ccc(F)cc21", "target.or.test.system": "HCC 2998", "classification": "NO"}
{"compound": "COc1ccccc1N1C(=O)/C(=C\\c2cccc(Oc3ccccc3)c2)SC1c1ccccc1 (configuration not stated)", "target.or.test.system": "HCC 2998", "classification": "NO"}
{"compound": "O=C1CCN2C(=Nc3cccc4cccc2c34)N1", "target.or.test.system": "HCC 2998", "classification": "NO"}
{"compound": "C[N+](C)(C)CC(=O)N/N=C(\\C(=O)NC1=C(Cl)C(=O)c2ccccc2C1=O)C(C#N)c1csc(-c2ccc([N+](=O)[O-])cc2)n1 (configuration not stated)", "target.or.test.system": "HCC 2998", "classification": "NO"}
{"compound": "CC(C)(C)N/C(N)=N/C#N", "target.or.test.system": "HCC 2998", "classification": "NO"}
{"compound": "Cc1cc(NS(=O)(=O)c2ccc(NC(=O)c3ccc(Cl)c4c(Nc5ccc(S(=O)(=O)N=C(N)N)cc5)c5ccccc5nc34)cc2)no1", "target.or.test.system": "HCC 2998", "classification": "NO"}
{"compound": "c1ccc(-c2cc(-c3cc(-c4ccccc4)n(-c4ccccc4)n3)nn2-c2ccccc2)cc1", "target.or.test.system": "HCC 2998", "classification": "NO"}
{"compound": "CCOC(=O)C1(C(=O)OCC)CC(=O)[C@@]2(C1)OCC[C@H]1OC(=O)C[C@H]12", "target.or.test.system": "HCC 2998", "classification": "NO"}
{"compound": "CC(=O)OCC1OC(n2c(C)c(/N=N/c3ccc(C)cc3)c(C)c(C#N)c2=S)C(OC(C)=O)C(OC(C)=O)C1OC(C)=O (configuration not stated)", "target.or.test.system": "HCC 2998", "classification": "NO"}
